- Tested on: Hepatitis B virus
- EXPERIMENT: Antiviral activity against HBV genotype D infected in human HepG2 cells assessed as inhibition of viral replication
- Assay type: functional, organism-based
MEASUREMENT_NAME: pEC50
In plain terms, pEC50 is the concentration in mol/L turned into minus its base-10 logarithm.

Request the reported pEC50 associated with "CCOC(=O)c1c(S(=O)(=O)N2CCC[C@H](C(=O)Nc3ccc(F)c(C)c3)C2)c(C)n(CC(F)(F)F)c1C"
6.62

====

- Test system: Hepatitis B virus
- EXPERIMENT: Antiviral activity against HBV infected in human HePAD38 cells assessed as reduction of capsid associated HBV DNA
- Assay type: functional, organism-based
Reported EC50 is given for each of the following molecules.
Just the number please, in µM, no unit attached.

Below are worked cases with known answers.
| SMILES_DATA | MEASUREMENT_NAME | REPORTED_MEASUREMENT |
| --- | --- | --- |
| Cc1cc(NC(=O)c2cccc(S(=O)(=O)N[C@H]3CCOC3)c2)ccc1F | EC50 | 0.27 |
| CCOC(=O)c1c(S(=O)(=O)N2CCC[C@H](C(=O)Nc3ccc(F)c(C)c3)C2)c(C)n(CC(F)(F)F)c1C | EC50 | 0.11 |
| Cc1c(C#N)c(S(=O)(=O)N2CCC[C@H](C(=O)Nc3ccc(F)c(Cl)c3)C2)c(C)n1C | EC50 | 4.41 |

Now turn to the next molecule.
// lookup EC50 for "COC(=O)c1c(S(=O)(=O)N2CCC[C@H](C(=O)Nc3ccc(F)c(C)c3)C2)c(C)n(C(F)F)c1C"
0.33

====

- Tested on: Hepatitis B virus
- EXPERIMENT: Antiviral activity against HBV infected in human HePAD38 cells assessed as reduction of capsid associated HBV DNA
- Type: functional, organism-based
Each entry below carries its reported EC50.
Units required after the number.

Study these solved cases before continuing.
| COMPOUND | EC50 |
| --- | --- |
| CCOC(=O)c1c(S(=O)(=O)N2CCC[C@H](C(=O)Nc3ccc(F)c(C)c3)C2)c(C)n(C2CC2)c1C | 5.87 µM |
| CCOC(=O)c1c(S(=O)(=O)N2CCCC(C(=O)Nc3ccc(F)c(F)c3)C2)c(C)n(C)c1C (centres undefined) | 0.52 µM |
| C=C1[C@H](CO)[C@@H](O)C[C@@H]1n1cnc2c(=O)[nH]c(N)nc21 [ENTECAVIR ANHYDROUS] | 0.003 µM |

Moving on to another compound below.
GET /values?readout=EC50&system=Hepatitis B virus&item= "COC(=O)C1=C(C)NC(c2ncc(F)cc2F)=N[C@H]1c1ccc(F)cc1Cl"
0.05 µM
